PROCEDURE SUMMARY: human hepatoma cell viability loss – ATP luminescence, cytotoxicity control for P. falciparum antimalarial project, primary screen (AID 2303)
CONDITION DETAILS: HepG2 viability, 24-48 h, at 10 µM
Calls of active or inactive are those of the source.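 How the source made its calls: active means inhibition above 50%; inactive means the rest.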
Write down one outcome, taken from active, inactive

Answered cases to consult:
MOLECULE	ASSIGNED CATEGORY
C=C[C@]1(C)C[C@@H](OC(=O)CS[C@H]2CN3CC[C@H]2C3)[C@@]2(C)C3C(=O)CC[C@@]3(CC[C@H]2C)[C@@H](C)[C@@H]1O (stereo partly drawn)	inactive
CCN(CCCN1CCCC1)c1cc(C)nc(Nc2ccc(Cl)cc2)n1	inactive
COCc1cc(C)nc2sc(C(=O)Nc3cc(C(C)(C)C)ccc3O)c(N)c12	inactive
NCc1ccc(CNCc2cccc(-c3cccc(-c4nc5ccc(F)cc5[nH]4)c3)c2)cc1	inactive
Oc1ccc2[nH]cc(C3CCN(CCCCCCCCCN4CCC(c5c[nH]c6ccc(O)cc56)CC4)CC3)c2c1	inactive

Short answer needed: outcome of this test for COC(=O)CCCCOc1c(OC)cc(Cc2cnc(N)nc2N)cc1OC ?
inactive

Which outcome did this test record for the molecule c1ccc(C(c2ccccc2)N2CCC(NCc3ccc(OCCCN4CCCCC4)cc3)CC2)cc1 ?
active

Which result was noted for this molecule in the test: Cc1nc2ccc3nc(NC(=O)c4ccno4)sc3c2s1
inactive

Short answer needed: outcome of this test for Oc1ccc(CCNc2nc(NCc3ccccc3-c3ccc(C(F)(F)F)cc3)nc(NC3CCNCC3)n2)cc1 ?
inactive

Assay result, entry OCCN1CCN(Cc2ccc(-c3ccc(-c4nc5ccc(C(F)(F)F)cc5[nH]4)s3)cc2)CC1 — outcome?
active

Per the records of this test, what outcome belongs to Nc1ncc(-c2ccc3[nH]ccc3c2)c2ccc(-c3ccncc3)cc12 ?
inactive

Please state the recorded outcome for this molecule: O=C(Nc1ccc(OC2CCN(Cc3ccsc3)C2)c(Cl)c1)c1ccsc1 (stereo not drawn)
inactive

Record request — test call for Cc1ccc(Cc2cnc(CN3CCCCC3)c(O)c2)cc1
inactive

Could you kindly confirm the outcome this assay logged for CC(C)CNCc1cccc(-c2ccc(CNc3ccc(C(=O)c4ccccc4)cc3)cc2)c1 ?
inactive

Tell me the recorded outcome of this test for O=C(N[C@H]1CCN(CCc2ccc(O[C@H]3CCNC3)cc2)C1)c1ccc(Cl)c(Cl)c1 .
inactive

Outcome logged for C[C@H](NC(=O)c1c(CN2CCC(N3CCCCC3)CC2)c(-c2ccccc2)nc2cc(O)ccc12)C1CCCCC1 in this assay:
active

Given COc1ccc2nccc([C@@H](O)CN3CCC(NC(=O)/C=C/c4cccc(C)c4)CC3)c2c1 , state the outcome it received in this test.
inactive

Please state the recorded outcome for this molecule: COc1ccc2nccc(NC(=O)OC3CCC(NCc4ccc5c(n4)NC(=O)CS5)CC3)c2c1 (stereo not drawn)
inactive

Could you kindly confirm the outcome this assay logged for Cc1cc(=O)[nH]c2cc(Nc3ccnc(Nc4cccc(C(N)=O)c4)n3)ccc12 ?
inactive
